relative viability overview
- Test system: NCI-H596
- Protocol summary: relative viability (nuclei count vs DMSO), 5 days (fraction); higher = more cells survive
- Details: first compound 0.253 µM

Compound	relative viability
O=c1cc(-c2cccc3c2Sc2ccccc2S3)oc(N2CCOCC2)c1 + CCNC(=O)c1noc(-c2cc(C(C)C)c(O)cc2O)c1-c1ccc(CN2CCOCC2)cc1 [Luminespib] (partner 0.01 µM)	0.957
COc1nc(C)cnc1NS(=O)(=O)c1cccnc1-c1ccc(-c2nnco2)cc1 [Zibotentan] + Cc1cc(Nc2cc(N3CCN(C)CC3)nc(Sc3ccc(NC(=O)C4CC4)cc3)n2)n[nH]1 [Tozasertib] (partner 0.1 µM)	0.846
O=c1cc(-c2cccc3c2Sc2ccccc2S3)oc(N2CCOCC2)c1 + COc1cc2c(Oc3ccc(NC(=O)C4(C(=O)Nc5ccc(F)cc5)CC4)cc3F)ccnc2cc1OCCCN1CCOCC1 [Foretinib] (partner 0.25 µM)	0.907
O=c1cc(-c2cccc3c2Sc2ccccc2S3)oc(N2CCOCC2)c1 + O=C(CCCCCCC(=O)Nc1ccccc1)NO [Vorinostat] (partner 1 µM)	0.749
COc1nc(C)cnc1NS(=O)(=O)c1cccnc1-c1ccc(-c2nnco2)cc1 [Zibotentan] + COc1cccc2cc(-c3nc([C@H]4CC[C@H](C(=O)O)CC4)n4ncnc(N)c34)[nH]c12 [OSI-027] (partner 0.5 µM)	0.643
COc1nc(C)cnc1NS(=O)(=O)c1cccnc1-c1ccc(-c2nnco2)cc1 [Zibotentan] + Cc1nc(Nc2ncc(C(=O)Nc3c(C)cccc3Cl)s2)cc(N2CCN(CCO)CC2)n1 [Dasatinib] (partner 0.075 µM)	0.549
COc1nc(C)cnc1NS(=O)(=O)c1cccnc1-c1ccc(-c2nnco2)cc1 [Zibotentan] + O=C(c1cc(Cc2n[nH]c(=O)c3ccccc23)ccc1F)N1CCN(C(=O)C2CC2)CC1 [Olaparib] (partner 8 µM)	0.595
O=c1cc(-c2cccc3c2Sc2ccccc2S3)oc(N2CCOCC2)c1 + C[C@@H](Oc1cc(-c2cnn(C3CCNCC3)c2)cnc1N)c1c(Cl)ccc(F)c1Cl [Crizotinib] (partner 1 µM)	1.08
COc1nc(C)cnc1NS(=O)(=O)c1cccnc1-c1ccc(-c2nnco2)cc1 [Zibotentan] + CC(=O)Nc1cccc(-n2c(=O)n(C3CC3)c(=O)c3c(Nc4ccc(I)cc4F)n(C)c(=O)c(C)c32)c1 [Trametinib] (partner 0.02 µM)	0.8
